Sourced from patent US9394290B2

TGT: UniProtKB P15538
Sequence (P15538 25-503): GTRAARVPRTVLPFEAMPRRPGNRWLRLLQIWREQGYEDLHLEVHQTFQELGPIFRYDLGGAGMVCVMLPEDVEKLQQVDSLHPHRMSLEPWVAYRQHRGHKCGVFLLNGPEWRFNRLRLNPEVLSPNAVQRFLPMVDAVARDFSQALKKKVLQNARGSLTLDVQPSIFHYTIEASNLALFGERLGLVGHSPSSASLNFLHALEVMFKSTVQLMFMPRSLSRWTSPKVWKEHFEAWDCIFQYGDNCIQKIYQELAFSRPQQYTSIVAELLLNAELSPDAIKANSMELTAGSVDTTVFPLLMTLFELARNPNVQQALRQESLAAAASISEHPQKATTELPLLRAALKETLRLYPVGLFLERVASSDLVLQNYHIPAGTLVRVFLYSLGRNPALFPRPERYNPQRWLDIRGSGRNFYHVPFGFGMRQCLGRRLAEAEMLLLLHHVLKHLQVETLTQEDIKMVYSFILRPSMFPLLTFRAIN
TEST DETAILS: Cellular assay for CYP11B1 inhibition (V79MZh11B1 hamster fibroblasts, substrate 11-deoxycorticosterone)
SETUP CONDITIONS: read-out: IC50 value CYP11B1; Hamster fibroblasts expressing human CYP11B1; substrate 11-deoxycorticosterone, 100 nM; mean of at least three experiments
PARAMETER MEASURED: IC50 (nM)

INSERT INTO assay_data (input_smiles, tgt, parameter_measured, result) VALUES
  ('Nc1ccccc1-c1ccc(Cn2ccnc2)cn1', 'UniProtKB P15538', 'IC50', 101),
  ('O=Cc1ccc(-c2ccc(Cn3ccnc3)cn2)s1', 'UniProtKB P15538', 'IC50', 62),
  ('c1cn(Cc2ccc(-c3ccsc3)nc2)cn1', 'UniProtKB P15538', 'IC50', 126);

====

TGT: Human placental CYP19 (Homo sapiens (Human))
Sequence (P11511 whole entry): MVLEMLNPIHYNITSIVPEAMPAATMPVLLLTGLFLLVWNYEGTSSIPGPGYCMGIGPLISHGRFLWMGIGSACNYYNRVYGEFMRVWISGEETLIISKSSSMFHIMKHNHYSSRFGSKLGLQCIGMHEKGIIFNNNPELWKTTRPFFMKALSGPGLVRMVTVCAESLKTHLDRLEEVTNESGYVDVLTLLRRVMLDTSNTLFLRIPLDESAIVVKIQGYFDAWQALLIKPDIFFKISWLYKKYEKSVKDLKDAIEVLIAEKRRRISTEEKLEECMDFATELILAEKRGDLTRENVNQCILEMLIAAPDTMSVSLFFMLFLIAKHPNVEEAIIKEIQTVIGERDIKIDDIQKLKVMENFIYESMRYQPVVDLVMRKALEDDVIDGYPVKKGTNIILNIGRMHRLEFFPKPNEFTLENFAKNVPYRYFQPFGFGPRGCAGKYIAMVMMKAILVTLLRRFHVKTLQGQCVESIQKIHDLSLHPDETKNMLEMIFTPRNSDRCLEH
TEST DETAILS: CYP19 (aromatase) assay, human placental microsomes, 3H2O release
Format: biochemical
SETUP CONDITIONS: substrate androstenedione, 500 nM, inhibitor concentration 500 nM, read-out: inhibition (%) CYP 19
Description: The enzyme was obtained from the microsomal fraction of freshly delivered human term placental tissue according to the procedure of Thompson and Siiteri (Thompson, E. A.; Siiteri, P. K. J. Biol. Chem. 1974, 249, 5364). The isolated microsomes were suspended in a minimum volume of phosphate buffer (0.05 M, pH 7.4, 20% glycerol). […] The above experiment was conducted at least three times and a mean value for the CYP19 inhibition calculated.
inhibition at 0.5 µM values by entry
PARAMETER MEASURED: inhibition at 0.5 µM (%)

INSERT INTO measurements (input_smiles, result) VALUES
  ('O=Cc1ccc(-c2ccc(Cn3ccnc3)cn2)s1', 0),
  ('c1coc(-c2ccc(Cn3ccnc3)cn2)c1', 0),
  ('COc1ccccc1-c1ccc(Cn2ccnc2)cn1', 4),
  ('Fc1ccccc1-c1ccc(Cn2ccnc2)cn1', 0),
  ('c1ccc(N(c2ccccc2)c2ccc(-c3ccc(Cn4ccnc4)cn3)cc2)cc1', 1),
  ('c1cn(Cc2ccc(-c3ccsc3)nc2)cn1', 0),
  ('Nc1cccc(-c2ccc(Cn3ccnc3)cn2)c1', 2),
  ('c1coc(-c2cc(Cn3ccnc3)cnc2-c2ccco2)c1', 2.2),
  ('c1ccc(-c2cc(Cn3ccnc3)cnc2-c2ccccc2)cc1', 0);

====

TGT: UniProt P11511
TEST DETAILS: CYP19 (aromatase) assay, human placental microsomes, 3H2O release
Type: biochemical
SETUP CONDITIONS: substrate androstenedione, 500 nM, inhibitor concentration 500 nM, read-out: inhibition (%) CYP 19
PARAMETER MEASURED: inhibition at 0.5 µM

INSERT INTO assay_data (input_smiles, tgt, result) VALUES
  ('Oc1ccc(-c2ccc(Cn3ccnc3)cn2)cc1F', 'UniProt P11511', '0%'),
  ('c1ccc2c(-c3ccc(Cn4ccnc4)cn3)csc2c1', 'UniProt P11511', '0%'),
  ('Cc1ccc(-c2ccc(Cn3ccnc3)cn2)cc1N', 'UniProt P11511', '0%'),
  ('c1ccc2c(-c3ccc(Cn4ccnc4)cn3)cccc2c1', 'UniProt P11511', '5%'),
  ('c1csc(-c2ccc(Cn3ccnc3)cn2)c1', 'UniProt P11511', '3%'),
  ('Brc1ncccc1Cn1ccnc1', 'UniProt P11511', '2%'),
  ('c1cn(Cc2ccc(-c3ccoc3)nc2)cn1', 'UniProt P11511', '0%'),
  ('Nc1ccccc1-c1ccc(Cn2ccnc2)cn1', 'UniProt P11511', '0%'),
  ('c1csc(-c2ncccc2Cn2ccnc2)c1', 'UniProt P11511', '19%'),
  ('Nc1ccc(-c2ccc(Cn3ccnc3)cn2)cc1', 'UniProt P11511', '1%');

====

TGT: human CYP17 (Homo sapiens (Human), UniProt P05093)
Sequence (P05093 whole entry): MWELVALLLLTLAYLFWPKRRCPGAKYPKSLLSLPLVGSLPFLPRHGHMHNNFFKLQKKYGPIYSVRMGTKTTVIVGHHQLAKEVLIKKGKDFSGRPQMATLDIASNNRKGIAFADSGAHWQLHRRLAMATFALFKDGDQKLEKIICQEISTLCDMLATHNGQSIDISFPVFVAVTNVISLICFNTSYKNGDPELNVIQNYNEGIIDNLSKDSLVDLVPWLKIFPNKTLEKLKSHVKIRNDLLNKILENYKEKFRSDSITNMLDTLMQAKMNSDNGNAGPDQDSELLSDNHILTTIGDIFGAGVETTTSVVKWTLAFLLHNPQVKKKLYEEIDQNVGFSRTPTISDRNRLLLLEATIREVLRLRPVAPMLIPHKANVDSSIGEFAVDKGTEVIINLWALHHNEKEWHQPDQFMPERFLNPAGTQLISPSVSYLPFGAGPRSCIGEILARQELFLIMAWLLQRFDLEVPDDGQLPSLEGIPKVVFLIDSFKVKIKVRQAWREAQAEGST
TEST DETAILS: CYP17 inhibition assay (membrane fraction of E. coli expressing human CYP17, substrate progesterone)
Format: biochemical
SETUP CONDITIONS: 25 μM, inhibitor concentration 2.0 μM, read-out: inhibition (%) CYP 17
Category scheme (inhibition at 2 µM): small value (below 3%), mid value (3% to below 5%), large value (5% or more)

INSERT INTO assay_data (molecule, tgt, assigned_category) VALUES
  ('c1ccc2c(-c3ccc(Cn4ccnc4)cn3)cccc2c1 [Compound 23]', 'human CYP17 (Homo sapiens (Human), UniProt P05093)', 'large value'),
  ('c1ccc2c(-c3ccc(Cn4ccnc4)cn3)csc2c1 [Compound 38]', 'human CYP17 (Homo sapiens (Human), UniProt P05093)', 'mid value'),
  ('Fc1cccc(-c2ccc(Cn3ccnc3)cn2)c1 [Compound 8]', 'human CYP17 (Homo sapiens (Human), UniProt P05093)', 'small value'),
  ('Fc1ccc(-c2ccc(Cn3ccnc3)cn2)cc1F [Compound 10]', 'human CYP17 (Homo sapiens (Human), UniProt P05093)', 'small value'),
  ('COc1ccc(-c2ccc(Cn3ccnc3)cn2)cc1 [Compound 13]', 'human CYP17 (Homo sapiens (Human), UniProt P05093)', 'small value'),
  ('O=Cc1ccc(-c2ccc(Cn3ccnc3)cn2)cc1 [Compound 21]', 'human CYP17 (Homo sapiens (Human), UniProt P05093)', 'small value'),
  ('Nc1ccccc1-c1ccc(Cn2ccnc2)cn1 [Compound 15]', 'human CYP17 (Homo sapiens (Human), UniProt P05093)', 'large value'),
  ('c1coc(-c2cc(Cn3ccnc3)cnc2-c2ccco2)c1 [Compound 42]', 'human CYP17 (Homo sapiens (Human), UniProt P05093)', 'large value'),
  ('Oc1ccc(-c2ccc(Cn3ccnc3)cn2)cc1F [Compound 11]', 'human CYP17 (Homo sapiens (Human), UniProt P05093)', 'small value'),
  ('c1csc(-c2ccc(Cn3ccnc3)cn2)c1 [Compound 31]', 'human CYP17 (Homo sapiens (Human), UniProt P05093)', 'large value'),
  ('c1cn(Cc2ccc(-c3ccoc3)nc2)cn1 [Compound 40]', 'human CYP17 (Homo sapiens (Human), UniProt P05093)', 'large value'),
  ('Nc1ccc(-c2ccc(Cn3ccnc3)cn2)cc1 [Compound 17]', 'human CYP17 (Homo sapiens (Human), UniProt P05093)', 'mid value'),
  ('c1coc(-c2ccc(Cn3ccnc3)cn2)c1 [Compound 39]', 'human CYP17 (Homo sapiens (Human), UniProt P05093)', 'small value');

====

TGT: UniProtKB P19099
Sequence (P19099 25-503): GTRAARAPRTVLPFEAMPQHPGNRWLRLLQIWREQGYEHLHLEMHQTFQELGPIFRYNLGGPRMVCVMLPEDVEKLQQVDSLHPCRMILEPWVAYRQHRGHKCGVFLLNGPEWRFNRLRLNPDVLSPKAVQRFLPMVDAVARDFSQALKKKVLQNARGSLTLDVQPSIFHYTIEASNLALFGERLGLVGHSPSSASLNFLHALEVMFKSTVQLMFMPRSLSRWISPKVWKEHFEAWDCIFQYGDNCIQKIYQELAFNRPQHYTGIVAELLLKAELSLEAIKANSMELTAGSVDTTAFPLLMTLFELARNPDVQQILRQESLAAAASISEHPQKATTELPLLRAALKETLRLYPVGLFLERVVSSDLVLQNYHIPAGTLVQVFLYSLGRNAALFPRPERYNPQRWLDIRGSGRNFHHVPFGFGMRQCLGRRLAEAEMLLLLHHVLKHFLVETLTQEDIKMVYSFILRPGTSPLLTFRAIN
TEST DETAILS: Cellular assay for CYP11B2 inhibition (V79MZh11B2 hamster fibroblasts, substrate 11-deoxycorticosterone)
SETUP CONDITIONS: read-out: IC50 value CYP11B2, Hamster fibroblasts expressing human CYP11B2, 100 nM, mean of at least three experiments, n.i. = no inhibition at an inhibitor concentration of 500 nM
pIC50: −log10 of the molar value.
PARAMETER MEASURED: pIC50

INSERT INTO measurements (compound, relation, result) VALUES
  ('c1cc(Cn2ccnc2)ccn1', '<', 6.00),
  ('c1ccc2c(-c3ccc(Cn4ccnc4)cn3)csc2c1', '=', 5.94),
  ('Cc1ccc(-c2ccc(Cn3ccnc3)cn2)cc1N', '<', 6.00),
  ('Brc1ccc(Cn2ccnc2)cn1', '<', 6.00),
  ('Brc1ncccc1Cn1ccnc1', '=', 6.04),
  ('Fc1ccc(-c2ccc(Cn3ccnc3)cn2)cc1F', '=', 5.78),
  ('c1coc(-c2cc(Cn3ccnc3)cnc2-c2ccco2)c1', '=', 6.08),
  ('N#Cc1ncccc1Cn1ccnc1', '<', 6.00),
  ('c1ccc(-c2ccc(Cn3ccnc3)cn2)cc1', '=', 5.56),
  ('c1coc(-c2ccc(Cn3ccnc3)cn2)c1', '=', 5.29),
  ('Nc1cccc(-c2ccc(Cn3ccnc3)cn2)c1', '=', 5.47),
  ('c1ccc(-c2cc(Cn3ccnc3)cnc2-c2ccccc2)cc1 [Compound 35]', '=', 6.38),
  ('c1ccc2c(-c3ccc(Cn4ccnc4)cn3)cccc2c1', '=', 5.68),
  ('c1ccc2oc(-c3ccc(Cn4ccnc4)cn3)cc2c1', '<', 6.00),
  ('O=Cc1ccc(-c2ccc(Cn3ccnc3)cn2)cc1', '<', 6.00),
  ('Nc1ccccc1-c1ccc(Cn2ccnc2)cn1', '=', 5.67),
  ('Fc1ccccc1-c1ccc(Cn2ccnc2)cn1', '=', 5.76),
  ('Clc1ccc(-c2ccc(Cn3ccnc3)cn2)s1', '=', 6.03),
  ('Fc1cccc(-c2ccc(Cn3ccnc3)cn2)c1', '<', 6.00),
  ('N#Cc1ccc(-c2ccc(Cn3ccnc3)cn2)cc1', '<', 6.00),
  ('c1ccc2sc(-c3ccc(Cn4ccnc4)cn3)cc2c1', '=', 6.55),
  ('c1cncc(Cn2ccnc2)c1', '<', 6.00),
  ('c1ccc(-c2cc(Cn3ccnc3)cnc2-c2ccccc2)cc1 [Compound 25]', '=', 6.07),
  ('COc1ccc(-c2ccc(Cn3ccnc3)cn2)cc1OC', '<', 6.00),
  ('N#Cc1cccc(-c2ccc(Cn3ccnc3)cn2)c1', '<', 6.00),
  ('Oc1ccc(-c2ccc(Cn3ccnc3)cn2)cc1F', '=', 6.63),
  ('c1cc(-c2ccc(Cn3ccnc3)cn2)ccn1 [Compound 27, 5-Imidazol-1-ylmethyl-[2,4′]bipyridinyl]', '=', 6.31),
  ('CCOC(=O)c1cncn1[C@H](C)c1ccccc1 [ETO, etomidate, reference compound]', '=', 10.00),
  ('COc1ccc(-c2ccc(Cn3ccnc3)cn2)cn1', '<', 6.00),
  ('COc1ccccc1-c1ccc(Cn2ccnc2)cn1', '=', 5.36),
  ('COc1ccc(-c2ccc(Cn3ccnc3)cn2)cc1', '<', 6.00),
  ('c1ccc2c(-c3ccc(Cn4ccnc4)cn3)cncc2c1', '=', 6.04),
  ('c1ccc2cc(-c3ccc(Cn4ccnc4)cn3)ccc2c1', '=', 6.11),
  ('c1csc(-c2ncccc2Cn2ccnc2)c1', '=', 6.60),
  ('Nc1ccc(-c2ccc(Cn3ccnc3)cn2)cc1', '=', 6.28),
  ('c1cn(Cc2ccc(-c3ccoc3)nc2)cn1', '=', 5.55);
